The reported numbers originate from patent US12624112.

- subject_of_test: Human ST2-fc (human) (UniProt Q01638)
- assay_text: competition ELISA, coated ST2-fc, competitor IL33-his
// values below are reported IC50
endpoint_name: IC50

INSERT INTO results (binder, measured) VALUES
  ('5888-153-H1L0 (antibody, human IgG4 S228P, kappa, V domains shown) VH: QVQLVQSGAEVKKPGASVKVSCKASGYTFTDYELHWVRQAPGQGLEWMGTIDPETGDTVYNQKFKARVTMTADKSTSTAYMELSSLRSEDTAVYYCTRAFYNDYDDGFAYWGQGTLVTVSS VL: EIVLTQSPATLSLSPGERATLSCSVSSSVSYMHWYQQKPGQAPRLLIYDTSKLASGIPARFSGSGSGTDFTLTISSLEPEDFAVYYCQQWNSSPLTFGGGTKVEIKR', '1.32 µg/mL'),
  ('5888-153-H0L0 (antibody, human IgG4 S228P, kappa, V domains shown) VH: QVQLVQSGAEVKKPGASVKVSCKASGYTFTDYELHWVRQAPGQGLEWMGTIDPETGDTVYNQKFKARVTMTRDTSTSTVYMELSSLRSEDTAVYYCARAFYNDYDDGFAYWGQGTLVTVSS VL: EIVLTQSPATLSLSPGERATLSCSVSSSVSYMHWYQQKPGQAPRLLIYDTSKLASGIPARFSGSGSGTDFTLTISSLEPEDFAVYYCQQWNSSPLTFGGGTKVEIKR', '2.57 µg/mL'),
  ('5886-156H+L (antibody, V domains shown, murine antibody) VH: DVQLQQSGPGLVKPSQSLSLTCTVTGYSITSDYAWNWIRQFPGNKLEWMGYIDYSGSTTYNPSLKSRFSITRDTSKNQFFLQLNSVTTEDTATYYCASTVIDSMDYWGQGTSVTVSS VL: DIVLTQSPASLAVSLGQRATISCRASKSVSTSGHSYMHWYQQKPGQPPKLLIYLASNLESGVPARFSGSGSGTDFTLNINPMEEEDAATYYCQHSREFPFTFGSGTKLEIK', '1.14 µg/mL');
